Exercise: for every item that follows, state its recorded EC50.
Molecular target: Gal4-RORγ-LBD (Homo sapiens, UniProt P51449)
Construct: expressed in transfected cells
Sequence (P51449 269-508 limits assumed): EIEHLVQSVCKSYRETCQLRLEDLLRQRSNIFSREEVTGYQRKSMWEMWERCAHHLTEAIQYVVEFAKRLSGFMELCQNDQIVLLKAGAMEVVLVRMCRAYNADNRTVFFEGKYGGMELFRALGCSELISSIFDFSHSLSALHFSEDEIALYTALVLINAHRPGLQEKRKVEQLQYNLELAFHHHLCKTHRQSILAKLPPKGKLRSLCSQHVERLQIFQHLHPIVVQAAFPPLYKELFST
Assay: Gal4-RORγ Luciferase Reporter Assay in HEK-293T Cells
Type: cell-based
Conditions: HEK-293 cells, luciferase reporter, with ursolic acid

Input line: Using the record for CCOc1ncc(C(F)(F)F)cc1S(=O)(=O)N1C[C@H](CCC(=O)O)Oc2ccc(/C=C(\C)c3c(Cl)cccc3C(F)(F)F)cc21 , report its EC50.
Output line: 500 to 5000 nM

Input line: Using the record for Cc1nn(C)c2ncc(S(=O)(=O)N3C[C@H](CCC(=O)O)Oc4ccc(/C=C/c5c(F)cccc5Cl)cc43)cc12 [Example 89DX] , report its EC50.
Output line: > 10000 nM

Input line: Using the record for COC(=O)CC[C@H]1CN(S(=O)(=O)c2cccc(C(F)(F)F)c2)c2cc(/C=C(\C)c3ccccc3C(F)(F)F)ccc2O1 [Example 86AH] , report its EC50.
Output line: 500 to 5000 nM

Input line: Using the record for CCOc1ncc(C(F)(F)F)cc1S(=O)(=O)N1C[C@H](CCC(=O)OC)Oc2ccc(/C=C/c3c(Cl)cccc3C(F)F)cc21 [Example 89EK] , report its EC50.
Output line: 500 to 5000 nM

Input line: Using the record for C/C(=C\c1ccc2c(c1)N(S(=O)(=O)c1cccc(C(F)(F)F)c1)C[C@H]([C@@H](C)N)O2)c1c(F)cccc1Cl , report its EC50.
Output line: 500 to 5000 nM

Input line: Using the record for O=C(O)CC[C@H]1CN(S(=O)(=O)c2cccc(C(F)(F)F)c2)c2cc(/C=C/c3ncccc3C(F)(F)F)ccc2O1 [Example 89BI] , report its EC50.
Output line: < 500 nM
